Measured growth, listed per entry.
Tested on: COLO 205 colon
Test: NCI-60 one-dose screen, 48 h (100 = growth as untreated, 0 = no growth, -100 = all killed)
Settings: 10 µM unless noted
Protocol: Cells are grown in 96 well plates and exposed to the test compound for 48 hours. Compounds are tested at a single concentration, which is 10^-5 M for most compounds. The reported endpoint is percent growth (GI% or GIPRCNT), where numbers from 0 - 100% represent growth inhibition, and numbers from -100% - 0 represent cell death. For example, a value of 40 represents 60% growth inhibition. A value of 0 means no net growth occurred over the course of the experiment. […]
The panel holds about 83,000 compounds, 20% with a hit somewhere; the sample as a whole holds those more often.
endpoint name: growth (%)

compound=CCCCCCc1nc2nc(Cl)c(Cl)nc2[nH]1 u=% val=102
compound=CCn1ccnc1C(=O)/C=C/c1ccc(CC(=O)Nc2ccc(F)cc2)cc1 u=% val=33.4
compound="Clc1ccc(C2CC(c3cccc(Nc4ccncc4)c3)=NN2c2ccc(Cl)cc2)cc1 (stereo not given)" u=% val=-61.5
compound=O=S(=O)(NCCNc1nccc(-c2c(-c3ccc(F)c(O)c3)nc3sccn23)n1)c1ccccc1 u=% val=33.9
compound=O=C(Nc1ccc(F)cc1)c1c(NC(=O)C(F)(F)F)sc2c1CCCCC2 u=% val=-18.6
compound=Cc1c(C(=O)NO)sc2ncnc(Nc3ccc(NC(=S)Nc4ccccc4)cc3)c12 u=% val=113
compound=COc1cc2c(cc1[N+](=O)[O-])-c1ccc([N+](=O)[O-])cc1/C2=N\O u=% val=79.6
compound="CC(=O)OCC(=O)C1(O)C(C)CC2C3C=C(C)C4=Cc5c(cnn5-c5ccccc5)CC4(C)C3C(O)CC21C (stereo not given)" u=% val=-70.1
compound=CCOc1cc(CNc2ccc(N3CCOCC3)c(C(=O)O)c2)ccc1OC u=% val=104
compound=[O-][n+]1ccccc1CCN(O)CCc1cccc[n+]1[O-] u=% val=104

###

Test system: ACHN renal
Assay: NCI-60 one-dose screen, 48 h (100 = growth as untreated, 0 = no growth, -100 = all killed)
Details: 10 µM unless noted
Compounds without any hit were thinned out: in the full panel of roughly 83,000, 20% have a hit.
Recorded measurements of growth, one per entry
endpoint name: growth (%)

compound=CSc1nc(O)c(-c2ccccc2)c(=O)[nH]1 endpoint_name=growth val=93.3
compound=CCN(CC)CCSCCCNc1c(C)cnc2cc(Cl)ccc12 endpoint_name=growth val=94.6
compound=Cc1ccccc1CNc1ccc(N2CCOCC2)cc1 endpoint_name=growth val=108
compound=CC[C@@]12C=CCN3CC[C@]4(c5cc(NC(=O)COc6cc(OCC(=O)Nc7cc8c(cc7OC)N(C)[C@H]7[C@@](O)(C(=O)OC)[C@H](OC(C)=O)[C@]9(CC)C=CCN%10CC[C@]87[C@@H]%109)cc7oc(-c8ccccc8)cc(=O)c67)c(OC)cc5N(C)[C@@H]4[C@](O)(C(=O)OC)[C@H]1OC(C)=O)[C@H]32 endpoint_name=growth val=85.4
compound=COc1ccc(C(=O)c2cc3c(N)c(C(=O)Nc4cccc(OC)c4)sc3nc2C)cc1 endpoint_name=growth val=41.2
compound="CC(C)NC(=O)N1C(=O)CCC1NNC(=O)c1ccc([N+](=O)[O-])cc1 (stereo not drawn)" endpoint_name=growth val=106
compound=Cc1cccc(C)c1-c1cc(Cc2ccc(Cl)cc2)c(=O)[nH]n1 endpoint_name=growth val=112
compound="CC(O)(CO)c1ccccc1 (stereo not drawn)" endpoint_name=growth val=95.2

###

Test system: T-47D breast
Assay: NCI-60 one-dose screen, 48 h (100 = growth as untreated, 0 = no growth, -100 = all killed)
Settings: 10 µM unless noted
Compounds without any hit were thinned out: in the full panel of roughly 83,000, 20% have a hit.
Give TRUE when the value for growth is at least 90%. Give FALSE when it is less.

compound_string=O=S(=O)(O)c1cc(O)c2c(N=Nc3ccc(Nc4ccccc4)c4c(S(=O)(=O)O)cccc34)cc(S(=O)(=O)O)cc2c1 label=TRUE
compound_string=COc1ccc2c(Nc3ccc(NS(C)(=O)=O)cc3)c3ccccc3nc2c1 label=FALSE
compound_string=CCOc1cc(CNc2ccc(N3CCOCC3)c(C(=O)O)c2)ccc1OC label=TRUE
compound_string=C[C@]12CCc3nc(Nc4cccc(O)c4)sc3C1=CC[C@@H]1[C@@H]2CC[C@]2(C)/C(=N\NC(N)=S)CC[C@@H]12 label=FALSE
compound_string=CC(C)[N+](C)(CCOC(COc1ccccc1)COc1ccccc1)C(C)C label=FALSE
compound_string=CC1(C)[C@H](O)CC[C@]2(C)[C@@H]1CC[C@@]13C[C@@H](CC[C@H]12)[C@@](O)(CO)C3 label=TRUE
compound_string=CC1CCN(C(=O)OCc2nc3nc(Cl)nc(N4CCOCC4)c3[nH]2)CC1 label=FALSE
compound_string=Cc1c2c(cc[n+]1Cc1ccc(F)cc1)c1ccc(OCc3cccc(F)c3)cc1n2Cc1cccc(F)c1 label=FALSE
compound_string=NC(=O)c1cccc(-n2ccc3cc(NC(=O)Nc4cc(C(F)(F)F)cc(C(F)(F)F)c4)ccc32)n1 label=FALSE

###

System: CAKI-1 renal
Experiment: NCI-60 one-dose screen, 48 h (100 = growth as untreated, 0 = no growth, -100 = all killed)
Conditions: 10 µM unless noted
Compounds without any hit were thinned out: in the full panel of roughly 83,000, 20% have a hit.
endpoint name: growth (%)

compound="CCN(CC)CCCC(Nc1c2ccc(Cl)cc2nc2ccc(OC)cc12)c1ccc(Cl)cc1 (centres undefined)" u=% val=-36.9
compound=CCCCCCN(C)Cc1ccc(OCCOc2ccc(CN(C)CCCCCC)cc2)cc1 u=% val=27.2
compound=O=C(OCc1nc2nc(Cl)nc(N3CCOCC3)c2[nH]1)n1ccnc1 u=% val=-68.8
compound=Cc1c([N+](=O)[O-])cc(C(C)(C)C)cc1[N+](=O)[O-] u=% val=98
compound=CN1CCN(c2ccc(NC3=C(Cl)C(=O)c4ncccc4C3=O)cc2C#N)CC1 u=% val=0.744
compound=COc1cc(Nc2cc(O)c3c(=O)cc(-c4ccccc4)oc3c2)cc(OC)c1 u=% val=47.2
compound="Clc1ccc(N2N=C(c3cccc(Nc4ccncc4)c3)CC2c2ccc(Br)cc2)cc1 (centres undefined)" u=% val=27.3
compound=COc1ccccc1N1CCN(C(=O)c2ccc3nc(NC(=O)c4ccc(NCCc5ccccc5)c([N+](=O)[O-])c4)sc3c2)CC1 u=% val=73.4
compound=O=C(N/N=C/c1ccc(F)cc1)c1ccccc1Nc1cccc(C(F)(F)F)c1 u=% val=112
compound="CC(=O)N1N=C(c2cccc(Nc3ccncc3)c2)CC1c1ccccc1 (centres undefined)" u=% val=77.2
compound=CO[C@@H]1[C@H](N(C)C(=O)c2ccccc2)C[C@@H]2O[C@]1(C)n1c3ccccc3c3c4c(c5c6ccccc6n2c5c31)C(=O)NC4=O u=% val=-10.8
compound=C=C(C)[C@@H]1CC[C@]2(CO)CC[C@]3(C)[C@H](CC[C@@H]4[C@@]5(C)CCCNC(C)(C)[C@@H]5CC[C@]43C)[C@@H]12 u=% val=38.4
compound=CC(=O)O[C@H]1CC[C@@]2(C)[C@@H](CC[C@@H]3[C@@H]2CC[C@@]2(C)[C@H]3CC[C@]2(O)C(C)=O)C1 u=% val=99.3
compound=CCSc1ccc2c(c1)N(CCCN1CCN(C)CC1)c1ccccc1S2 u=% val=50
compound=O=C(Cc1ccc(/C=C/C(=O)c2ncc[nH]2)cc1)Nc1ccc(C(F)(F)F)cc1 u=% val=68.7
compound="Clc1cc(Cl)cc(N2N=C(c3cccc(Nc4ccncc4)c3)CC2c2ccc3c(c2)OCO3)c1 (centres undefined)" u=% val=16.4
compound=O=C1CCCN1c1cccc2cccnc12 u=% val=91.9
compound=S=c1[nH]cccc1-c1nnc2n1Nc1nc3ccccc3cc1CS2 u=% val=82.8
compound=CCN(CC)S(=O)(=O)c1cccc([N+](=O)[O-])c1 u=% val=91.3
compound=COc1cc2oc(-c3cccc(C(=O)Nc4ccc(Cl)cc4)c3)cc(=O)c2c(OC)c1OC u=% val=8.22
compound="CNC(=O)NCC1OC(n2cnc3c(NC(=O)Nc4ccccc4)ncnc32)C(O[Si](C)(C)C(C)(C)C)C1O[Si](C)(C)C(C)(C)C (centres undefined)" u=% val=59.5
compound="COc1cc(NCC(C)(O)CN(CC(C)C)CC(C)C)c2nc(C)ccc2c1 (centres undefined)" u=% val=67.7
compound="COC(=O)C(c1ccccc1)C(CC(=O)c1ccccc1)c1ccccc1 (centres undefined)" u=% val=74.8
compound=CC1(C)[C@H](O)CC[C@]2(C)[C@@H]1CC[C@@]13C[C@@H](CC[C@H]12)[C@@](O)(CO)C3 u=% val=97.8
compound=O=C(CNCCO)Nc1ccc2ncnc(Nc3ccc(OCc4cccc(F)c4)c(Cl)c3)c2c1 u=% val=63.3
compound=CN1CCN(c2cc(F)c(NC3=C(Cl)C(=O)c4ncccc4C3=O)c(F)c2)CC1 u=% val=-85.6
compound=COc1cc(C(=O)c2cnc(-c3ccc4cc[nH]c4c3)[nH]2)cc(OC)c1OC u=% val=8.22
compound=COc1ccccc1-c1c(-c2ccc(Cl)cc2)c2cc3c(cc2[nH]c1=O)OCCO3 u=% val=54.9
compound=COc1ccc(-c2nn(Cc3ccccc3)c3c2-c2oncc2CC3)cc1OC u=% val=81.8
compound="CCOC(=O)C1CC(=O)c2cc(OC)c(OC)cc2C1 (centres undefined)" u=% val=120
compound="CC(C)Cc1ccc(C(C)C(=O)NCc2c[nH]c3ccc(Cl)cc23)cc1 (centres undefined)" u=% val=81.7
compound=COc1cc(OC)c(/C=C/C(=O)c2ccc(Nc3ncnc4ccccc34)cc2)c(OC)c1 u=% val=17.8
compound=CCN(CCNc1cc(OC)cc2cccnc12)CCc1ccccc1 u=% val=84.7
compound=COc1nc(N)nc(-n2c(-c3ccc(C)cc3)nc3ccccc32)c1NCc1ccc(C)cc1 u=% val=40.7
compound="CC(=O)N1N=C(c2cccc(Nc3ccncc3)c2)CC1c1ccc2c(c1)OCO2 (centres undefined)" u=% val=81.8
compound="COc1ccc(C2CC(c3cccc(Nc4ccncc4)c3)=NN2c2ccc(Cl)cc2)cc1 (centres undefined)" u=% val=24.5
compound=COc1ccc(C(=O)c2cc(C)c(OC)c(C)c2)c(OC)c1O u=% val=39.5
compound=NC(=S)N/N=C(\c1ccc(Cl)cc1)C1CC1 u=% val=81.1
compound=COc1cc2nc(-c3ccc(C#N)cc3)[nH]c(=O)c2cc1OC u=% val=92

Each recorded value in this set is attributed to PubChem BioAssay (NCI).
